src = the OPERA property sets (Mansouri et al. 2018)

Class membership depends on log10 vapour pressure (mmHg) alone; the intervals are low range = under -5, mid range = from -5 up to -0.4, high range = -0.4 and over

- CCCCOCCOCCOCCO: mid range
- ClCOCCl: high range
- CC=CCCCCC: high range
- COC(=O)c1sccc1S(=O)(=O)NC(=O)Nc1nc(C)nc(OC)n1: low range
- COP(=S)(OC)Oc1c(Cl)cc(C)cc1Cl: mid range
- CCCCCCCCS: high range
- FC(=C(F)C(F)(F)F)C(F)(F)F: high range
- c1ccc2sc(SN3CCOCC3)nc2c1: low range
- Oc1c(Cl)cc(Cl)c(Cl)c1Cl: mid range
- Clc1cc(Cl)c2c(c1)oc1c(Cl)cc(Cl)cc12: low range
- CCOc1ccc([Si](C)(C)CCCc2ccc(F)c(Oc3ccccc3)c2)cc1: low range
- FCCF: high range
- Clc1cc(Cl)c2c(c1Cl)Oc1c(Cl)cc(Cl)c(Cl)c1O2: low range
- Cc1c(F)c(F)c(COC(=O)C2C(/C=C(\Cl)C(F)(F)F)C2(C)C)c(F)c1F (centres undefined): mid range

* * *

# key: entry, value: boiling point
endpoint.name: boiling point

* CCC(C)CC(C)(C)CC (configuration not stated) | 156 °C
* COC(=O)C(F)(F)F | 43.2 °C
* CCC(CC)(CC)CC | 146 °C
* CCCCCCCCCCCCCC(=O)O | 326 °C
* Cc1c(N)cccc1[N+](=O)[O-] | 305 °C
* CCOCCOC(=O)c1ccccc1C(=O)OCCOCC | 345 °C
* CCC(=O)CC(C)=O | 160 °C
* CC1=CCc2ccccc21 | 198 °C
* O=CC(Cl)(Cl)Cl | 97.8 °C
* FCCCCCCCl | 168 °C
* Cc1cccc(C#N)c1 | 213 °C
* CC12CCC(CC1)C2(C)C | 161 °C
* O=C1CCCCC1 | 155 °C
* ClC=CCCl (mixture of isomers) | 109 °C
* CC(=O)c1cc(C)ccc1C | 232 °C
* Cc1ccc2c(c1)CCC(C)C2 (configuration not stated) | 240 °C
* Cc1c(N)cccc1N | 260 °C

* * *

The label is T for melting point below 200 °C and F for melting point equal to or exceeding 200 °C.

• CN(C)N = T
• CC1(C(=O)O)CCCCC1 = T
• Cc1cccc(C(=O)N(NC(=O)c2ccccc2)C(C)(C)C)c1 = F
• Cc1ccc(N=C=Nc2ccc(C)cc2)cc1 = T
• COc1cc(C[C@H]2c3cc(OC)c(OC)cc3CCN2C)c(Oc2cc3c(cc2OC)-c2c(OC)c(OC)cc4c2[C@H](C3)N(C)CC4)cc1OC = T

* * *

endpoint.name: melting point (°C)

* CCc1c(C)[nH]c2c1C(=O)C(CN1CCOCC1)CC2 (configuration not stated) | 180
* CN(C)CCCNc1c2ccccc2nc2cccc([N+](=O)[O-])c12 | 134
* c1ccc(COCc2ccccc2)cc1 | 3.6
* Cc1ccc2ccc(C)cc2c1 | 97
* COc1cc2c(c(O)c1OC)CCN(C)[C@H]2C | 152
* COc1c(Cl)c(Cl)c(O)c(Cl)c1Cl | 116
* CCCCCCCCCCCCCCCCCC#N | 41
* CC1CN(C2CCCCCCCCCCC2)CC(C)O1 (configuration not stated) | 71
* CCCCCCCCCCCCCCCCCCI | 34
* Oc1cccc(C(F)(F)F)c1 | -1.8
* CC(N)=O | 81
* C=CC1CO1 (configuration not stated) | -135
* CC(=O)Cc1ccccc1 | -15
* Nc1ccccc1CO | 83.5
* CNCCc1ccc(O)c(O)c1 | 188
* O=C(Cn1c(=O)sc2ccc(Cl)cc21)N1CCN(CCO)CC1 | 160
* C=C(C)C(=O)NCO | -37
* Clc1c(Cl)c(Cl)c2c(c1Cl)Oc1ccccc1O2 | 188
* CCOC(C(=O)c1ccccc1)c1ccccc1 (configuration not stated) | 62
* CCCCC(=O)OCC(=O)[C@H]1[C@H](C)C[C@H]2[C@@H]3C[C@H](F)C4=CC(=O)C=C[C@]4(C)[C@@]3(F)[C@@H](O)C[C@@]21C | 195
* Cc1ccc(O)cn1 | 169
* SCc1ccccc1 | -30
* CC(C)c1ccc(O)c(O)c1 | 78
* FC(F)(F)C(F)(F)N(C(F)(F)C(F)(F)F)C(F)(F)C(F)(F)F | -110
* CCCCC(CC)COP(=O)(OCC(CC)CCCC)OCC(CC)CCCC (configuration not stated) | -74
* O=c1oc2ccccc2c(O)c1C1CC(c2ccc(-c3ccc(Br)cc3)cc2)Cc2ccccc21 (configuration not stated) | 230
* CN1CCc2cc3c(cc2[C@H]1[C@@H]1OC(=O)c2c1ccc1c2OCO1)OCO3 | 194
* COC(=O)c1ccccc1S(=O)(=O)NC(=O)Nc1nc(C)cc(C)n1 | 204
* CC(=O)Oc1ccc(C(c2ccc(OC(C)=O)cc2)c2ccccn2)cc1 | 134
* CCCc1ccccn1 | 2
* CC1OC(=O)C(C)OC1=O (configuration not stated) | 118
* O=[N+]([O-])c1ccc(CCc2ccc([N+](=O)[O-])cc2)cc1 | 181
* CCOC(=O)c1c(N)sc2c1CCN(Cc1ccccc1)C2 | 112
* Cc1ccc(NC(=O)N(C)C)cc1Cl | 148
* O=C1CCCCC1C1=CCCCC1 (configuration not stated) | -78
* c1ccc(Oc2nc(Oc3ccccc3)nc(Oc3ccccc3)n2)cc1 | 234
* Oc1c(Br)cc(Br)c2cccnc12 | 196
* OC(CNc1ccccn1)c1ccccc1 (configuration not stated) | 83.5
* Sc1c(Cl)c(Cl)c(Cl)c(Cl)c1Cl | 232
* CCN(CC)c1cccc(O)c1 | 78
* CCCCCCCCCCCCCCCCCCCC(=O)O | 75.4
* CN1CCN(C)C1=O | 8.2
* CCN(CC)CC(=O)Nc1c(C)cc(C)cc1C | 44
* Cc1cc(C)c(O)c(C)c1C | 80.5
* BrCCCCCCCCBr | 15.5
* CCCCC#N | -96.2
* CNC[C@H](O)c1ccc(O)c(O)c1 | 212
* COC(=O)c1ccc(Cl)cc1[N+](=O)[O-] | 44
* C[C@H]1[C@H](C)CC[C@]2(C(=O)O)CC[C@]3(C)C(=CC[C@@H]4[C@@]5(C)CC[C@H](O)C(C)(C)[C@@H]5CC[C@]43C)[C@H]12 | 284
* C=Cc1ccc(Br)cc1 | 7.7
* c1ccc(OCc2ccc(CCCN3CCOCC3)cc2)cc1 | 52.5
* c1ccc(N2CCOCC2)cc1 | 52.5
* ClCc1ccccc1 | -45
* O=C(O)CC1CCCCC1 | 33
* CCCCNC(=O)COC(=O)c1ccccc1 | 69.5
* O=C1OCc2c(Cl)c(Cl)c(Cl)c(Cl)c21 | 210
* Clc1cc2c(cc1Cl)Oc1c(cc(Cl)c(Cl)c1Cl)O2 | 240
